System: U-87 MG
Test: Antiproliferative activity against human U87 cells assessed as cell growth inhibition at 25 uM incubated for 72 hrs by MTT assay relative to control
Type: functional, U-87MG ATCC
Returns one of Condition met or Condition not met; Condition met when inhibition at 25 µM is >= 20%.

Solved entries:
[[record]]
compound = "O=C1NC(c2cc3ccccc3o2)Nc2ccccc21 (configuration not stated)"
tgt = "U-87 MG"
class_label = "Condition met"

[[record]]
compound = "Cc1ccc(/C=C/c2nc(O)c3ccccc3n2)cc1"
tgt = "U-87 MG"
class_label = "Condition met"

[[record]]
compound = "CCCCC1NC(=O)c2ccccc2N1 (configuration not stated)"
tgt = "U-87 MG"
class_label = "Condition not met"

[[record]]
compound = "O=C1NC(c2cccs2)Nc2ccccc21 (configuration not stated)"
tgt = "U-87 MG"
class_label = "Condition met"

[[record]]
compound = "O=C1NC(c2ccccc2C(=O)O)Nc2ccccc21 (configuration not stated)"
tgt = "U-87 MG"
class_label = "Condition not met"


Input: Would you say O=c1[nH]c(/C=C/c2ccc(O)cc2)nc2ccccc12 shows inhibition at 25 µM at minimum 20%?
Output: Condition met

Input: Is it the case that CCCCCCCCC1NC(=O)c2ccccc2N1 (configuration not stated) has inhibition at 25 µM reaching or exceeding 20%?
Output: Condition met

Input: Hello, I need to know if O=C1NC(C2CCCC2)Nc2ccccc21 (configuration not stated) has measured inhibition at 25 µM not below 20%. Thanks!
Output: Condition not met

Input: Please check the record O=C(O)c1ccc(C2NC(=O)c3ccccc3N2)cc1 (configuration not stated) and state if its inhibition at 25 µM is at or above 20%.
Output: Condition not met

Input: Does inhibition at 25 µM meet or surpass 20% for O=C1NC(c2ccc(O)cc2)Nc2ccccc21 (configuration not stated) ?
Output: Condition met

Input: Exam item: decide whether the reported inhibition at 25 µM for Oc1nc(-c2ccncc2)nc2ccccc12 is at least 20%.
Output: Condition not met

Input: Entry O=C1NC(c2cccc(O)c2)Nc2ccccc21 (configuration not stated) : is its inhibition at 25 µM no less than 20%?
Output: Condition met

These data points were gathered from ChEMBL document CHEMBL5532698.
